system: A. baumannii ATCC 17961; assay: MIC against clinical isolate; type: cell-based, Acinetobacter baumannii; conditions: clinical isolate ATCC 17961
property label: Antibacterial activity (in words)

INSERT INTO measurements (compound, result) VALUES
  ('CC(=O)NC[C@H]1CN(c2ccc(N3CCN(C(=O)CNC(=O)OCC4=C(C(=O)O)N5C(=O)[C@@H](NC(=O)C(N)c6ccccc6)[C@H]5SC4)CC3)c(F)c2)C(=O)O1 (some centres unmarked)', 'resistant'),
  ('CC(=O)OCC1=C(C(=O)O)N2C(=O)[C@@H](NC(=O)C(NC(=O)CN(CCCCNC(=O)c3cccc(O)c3O)C(=O)c3cccc(O)c3O)c3ccccc3)[C@H]2SC1 (some centres unmarked)', 'susceptible'),
  ('CC(=O)NC[C@H]1CN(c2ccc(N3CCN(C(=O)CNC(=O)OCC4=C(C(=O)O)N5C(=O)[C@@H](NC(=O)C(NC(=O)CN(CCCCNC(=O)c6cccc(O)c6O)C(=O)c6cccc(O)c6O)c6ccccc6)[C@H]5SC4)CC3)c(F)c2)C(=O)O1 (some centres unmarked)', 'susceptible'),
  ('CC(=O)NC[C@H]1CN(c2ccc(N3CCN(C(=O)CN)CC3)c(F)c2)C(=O)O1', 'resistant'),
  ('CC(=O)NC[C@H]1CN(c2ccc(N3CCN(C(=O)CNC(=O)CN(CCCCNC(=O)c4cccc(O)c4O)C(=O)c4cccc(O)c4O)CC3)c(F)c2)C(=O)O1', 'resistant');

====

tested on: A. baumannii ATCC BAA 1800; assay: MIC against clinical isolate; type: cell-based, Acinetobacter baumannii; conditions: clinical isolate ATCC BAA1800
property label: Antibacterial activity (in words)

INSERT INTO assay_data (compound, result) VALUES
  ('CC(=O)NC[C@H]1CN(c2ccc(N3CCN(C(=O)CNC(=O)OCC4=C(C(=O)O)N5C(=O)[C@@H](NC(=O)C(N)c6ccccc6)[C@H]5SC4)CC3)c(F)c2)C(=O)O1 (some centres unmarked)', 'resistant'),
  ('CC(=O)NC[C@H]1CN(c2ccc(N3CCN(C(=O)CN)CC3)c(F)c2)C(=O)O1', 'resistant'),
  ('CC(=O)NC[C@H]1CN(c2ccc(N3CCN(C(=O)CNC(=O)CN(CCCCNC(=O)c4cccc(O)c4O)C(=O)c4cccc(O)c4O)CC3)c(F)c2)C(=O)O1', 'resistant');
